Taken from ChEMBL document CHEMBL4028808.

- Experimental Target: CDK8/Cyclin C (Homo sapiens)
- Sequence (P49336 whole entry): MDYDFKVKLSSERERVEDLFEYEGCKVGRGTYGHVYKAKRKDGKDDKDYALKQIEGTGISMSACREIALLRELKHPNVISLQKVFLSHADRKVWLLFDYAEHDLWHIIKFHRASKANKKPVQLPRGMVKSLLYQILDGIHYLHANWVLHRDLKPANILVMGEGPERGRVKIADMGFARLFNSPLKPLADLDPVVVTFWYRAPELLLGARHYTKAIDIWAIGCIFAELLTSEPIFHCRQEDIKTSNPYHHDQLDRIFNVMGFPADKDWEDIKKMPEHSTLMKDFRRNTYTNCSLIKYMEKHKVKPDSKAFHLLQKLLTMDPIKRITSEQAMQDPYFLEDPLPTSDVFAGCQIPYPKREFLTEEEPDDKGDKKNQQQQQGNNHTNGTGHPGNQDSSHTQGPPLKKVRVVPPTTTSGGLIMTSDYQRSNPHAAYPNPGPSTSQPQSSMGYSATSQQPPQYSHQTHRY
- Sequence (P24863 whole entry, further chain): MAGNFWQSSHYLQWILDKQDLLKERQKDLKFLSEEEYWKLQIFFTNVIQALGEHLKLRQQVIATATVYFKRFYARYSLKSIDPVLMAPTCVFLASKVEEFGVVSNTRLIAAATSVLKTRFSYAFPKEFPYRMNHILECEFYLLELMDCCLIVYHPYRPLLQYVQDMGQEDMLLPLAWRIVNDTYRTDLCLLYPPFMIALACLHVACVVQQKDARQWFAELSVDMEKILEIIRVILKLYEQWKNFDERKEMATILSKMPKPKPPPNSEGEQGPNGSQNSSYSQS
- Method: Inhibition of kinase tracer-236 binding to GST-tagged CDK8/CyclinC (unknown origin) after 60 mins by TR-FRET assay
- Assay type: protein-complex assay
Attribute Measured: IC50 (nM)

Some entries whose results are on file:
Return value of IC50 for input NC(=O)c1ccc(Oc2sc(C(N)=O)c3c2-c2sncc2CC3)cn1 , no commentary.
0.93

Output measured IC50 for this item: Cc1cncc(Oc2sc(C(N)=O)c3c2-c2sncc2CC3)c1
5.1

For the compound NC(=O)c1sc(Oc2ccc(N)nc2)c2c1CCc1cnsc1-2 , report IC50.
0.6

Give a short answer stating reported IC50 for CSc1sc(C#N)c2c1-c1sncc1CC2 .
23

Let me know recorded IC50 for Cc1ccncc1Oc1sc(C(N)=O)c2c1-c1sncc1CC2 , thanks.
4.7

Look up and report measured IC50 for this entry: CSc1sc(C(N)=O)c2c1-c1sncc1CC2
0.65

Input CSc1sc(C(N)=O)c2c1-c1[nH]ncc1CC2 , output reported IC50.
1700

Tell us which IC50 value is on record for COCCNC(=O)c1ccc(Oc2sc(C(N)=O)c3c2-c2sncc2CC3)c(C)n1
1.4

[A] Cc1ccc(Oc2sc(C(N)=O)c3c2-c2sncc2CC3)cn1
[B] CSc1sc(C(N)=O)c2c1-c1snnc1CC2
Would you kindly point out which of A and B has the smaller IC50 figure? Reply with the label of the item you choose.
A
(A: 0.99 nM, B: 60 nM)

[a] CCOCCNC(=O)c1ccc(Oc2sc(C(N)=O)c3c2-c2sncc2CC3)cn1
[b] CSc1sc(C(=O)Nc2ccsn2)c2c1-c1sncc1CC2
Sorting ascending by IC50, which comes first: a or b ? Please reply using the label of the selected record.
a
(a: 1.1 nM, b: 66 nM)

====

- Method: Intrinsic clearance in human liver microsomes at 1 umol/l after 15 to 30 mins in presence of NADPH by LC-MS/MS analysis
- Assay type: ADME, microsome
- Protocol Conditions: read-out: CLH
Attribute Measured: microsomal CLint at 1 µM (µL/min/mg)

Quote microsomal CLint at 1 µM reported for Cc1cncc(Oc2sc(C(N)=O)c3c2-c2sncc2CC3)c1 please.
188

[1] COCCNC(=O)c1ccc(Oc2sc(C(N)=O)c3c2-c2sncc2CC3)c(C)n1
[2] CSc1sc(C(N)=O)c2c1-c1sncc1CC2
[3] CC(C)(O)CNC(=O)c1ccc(Oc2sc(C(N)=O)c3c2-c2sncc2CC3)cn1
[4] NC(=O)c1sc(Oc2ccc(N)nc2)c2c1CCc1cnsc1-2
List these items ordered by microsomal CLint at 1 µM, big to small. List the labels, following the order given in the request.
2, 1, 4, 3

[P] Cc1ccc(Oc2sc(C(N)=O)c3c2-c2sncc2CC3)cn1
[Q] NC(=O)c1sc(Oc2ccccc2)c2c1CCc1cnsc1-2
Of P versus Q , which is the one with smaller reported microsomal CLint at 1 µM? Mark your answer with the label of the selected entry.
P

====

- Experimental Target: CDK8/Cyclin C (Homo sapiens)
- Method: Inhibition of full length recombinant human His-tagged CDK8/Cyclin C expressed in baculovirus expression system by LanthaScreen assay
Attribute Measured: IC50 (nM)
Please respond with the number in nM and leave the unit unwritten.

Recall and state the measured IC50 for c1cc2cc(c1)-c1cnc3ccc(nn13)NCCCCCO2 .
31
